# Species on record: Rattus norvegicus
# assay.explanation: Open TG-GATES - Regimen: Single
# Format: toxicity, organism-based, Sprague-Dawley
# Parameters: regimen Single, gender Male, age 6 weeks
# experimental.parameters: in vivo, po, 1000 mg/kg, 6 h, tissue Plasma, route gavage, dose level High
parameter.measured: TBIL
Kindly write the number and append the unit.

// solved cases for TBIL follow
• CN/C(=N/CCSCc1nc[nH]c1C)NC#N [CIMETIDINE] = 0.1 mg/dL
• O=C(OC[C@H]1O[C@@H](OC(=O)c2cc(O)c(O)c(OC(=O)c3cc(O)c(O)c(O)c3)c2)[C@H](OC(=O)c2cc(O)c(O)c(OC(=O)c3cc(O)c(O)c(O)c3)c2)[C@@H](OC(=O)c2cc(O)c(O)c(OC(=O)c3cc(O)c(O)c(O)c3)c2)[C@@H]1OC(=O)c1cc(O)c(O)c(OC(=O)c2cc(O)c(O)c(O)c2)c1)c1cc(O)c(O)c(OC(=O)c2cc(O)c(O)c(O)c2)c1 [TANNIC ACID] = 0.7 mg/dL
• CNC(=C[N+](=O)[O-])NCCSCc1ccc(CN(C)C)o1 [RANITIDINE] = 0.1 mg/dL
• COC(=O)C1=C(C)NC(C)=C(C(=O)OC)C1c1ccccc1[N+](=O)[O-] [NIFEDIPINE] = 0.052 mg/dL

Now consider the entry below.
For the compound Cc1nnc2n1-c1ccc(Cl)cc1C(c1ccccc1Cl)=NC2 [TRIAZOLAM] , give its reported TBIL.
0.056 mg/dL

* * *

# Species: Rattus norvegicus
# assay.explanation: Open TG-GATES - Regimen: Daily Repeat
# Assay type: toxicity, organism-based, Sprague-Dawley
# Parameters: regimen Daily Repeat, gender Male, age 6 weeks
# experimental.parameters: in vivo, po, 100 mg/kg, […], tissue Blood, route gavage, dose level Low, time 14 day
Quick reference: RBC of the listed items.
Report the value in x10_4/ul with no unit label.

- Cc1nnc2n1-c1ccc(Cl)cc1C(c1ccccc1Cl)=NC2: 710.8

Give RBC for the following compound: COC(=O)C1=C(C)NC(C)=C(C(=O)OC)C1c1ccccc1[N+](=O)[O-]
688

Supply measured RBC of CNC(=C[N+](=O)[O-])NCCSCc1ccc(CN(C)C)o1 in your reply.
678

* * *

# Species: Rattus norvegicus
# assay.explanation: Open TG-GATES - Regimen: Daily Repeat
# Format: toxicity, organism-based, Sprague-Dawley
# Set-up: regimen Daily Repeat, gender Male, age 6 weeks
# experimental.parameters: in vivo, po, 1000 mg/kg, […], tissue Blood, route gavage, dose level High, time 28 day
parameter.measured: Hb (g/dL)
Write it as a number; the unit g/dL goes unstated.

- O=C(OC[C@H]1O[C@@H](OC(=O)c2cc(O)c(O)c(OC(=O)c3cc(O)c(O)c(O)c3)c2)[C@H](OC(=O)c2cc(O)c(O)c(OC(=O)c3cc(O)c(O)c(O)c3)c2)[C@@H](OC(=O)c2cc(O)c(O)c(OC(=O)c3cc(O)c(O)c(O)c3)c2)[C@@H]1OC(=O)c1cc(O)c(O)c(OC(=O)c2cc(O)c(O)c(O)c2)c1)c1cc(O)c(O)c(OC(=O)c2cc(O)c(O)c(O)c2)c1 [TANNIC ACID]: 14.4
- CCOc1ccc(NC(C)=O)cc1 [PHENACETIN]: 13.7
- Cc1nnc2n1-c1ccc(Cl)cc1C(c1ccccc1Cl)=NC2 [TRIAZOLAM]: 15.3
- COC(=O)C1=C(C)NC(C)=C(C(=O)OC)C1c1ccccc1[N+](=O)[O-] [NIFEDIPINE]: 14

Report Hb for CNC(=C[N+](=O)[O-])NCCSCc1ccc(CN(C)C)o1 [RANITIDINE]
15.5

Fill in reported Hb for this entry: CN/C(=N/CCSCc1nc[nH]c1C)NC#N [CIMETIDINE]
14.9

* * *

# Organism: Rattus norvegicus
# assay.explanation: Open TG-GATES - Regimen: Single
# Format: toxicity, organism-based, Sprague-Dawley
# Design: regimen Single, gender Male, age 6 weeks
# experimental.parameters: in vivo, po, 100 mg/kg, 9 h, tissue Blood, route gavage, dose level Low
Some compounds, each annotated with its measured Hb.
The reply should be a number in g/dL, with the unit left off.

Worked examples, 3 compounds total:
* CNC(=C[N+](=O)[O-])NCCSCc1ccc(CN(C)C)o1 | 13.2
* Cc1nnc2n1-c1ccc(Cl)cc1C(c1ccccc1Cl)=NC2 | 13.4
* COC(=O)C1=C(C)NC(C)=C(C(=O)OC)C1c1ccccc1[N+](=O)[O-] | 12.7

# return recorded Hb for entry O=C(OC[C@H]1O[C@@H](OC(=O)c2cc(O)c(O)c(OC(=O)c3cc(O)c(O)c(O)c3)c2)[C@H](OC(=O)c2cc(O)c(O)c(OC(=O)c3cc(O)c(O)c(O)c3)c2)[C@@H](OC(=O)c2cc(O)c(O)c(OC(=O)c3cc(O)c(O)c(O)c3)c2)[C@@H]1OC(=O)c1cc(O)c(O)c(OC(=O)c2cc(O)c(O)c(O)c2)c1)c1cc(O)c(O)c(OC(=O)c2cc(O)c(O)c(O)c2)c1
13.2

In one line, give reported Hb of the entry CN/C(=N/CCSCc1nc[nH]c1C)NC#N .
12.9

* * *

# Organism: Rattus norvegicus
# assay.explanation: Open TG-GATES - Regimen: Single
# Type: toxicity, organism-based, Sprague-Dawley
# Design: regimen Single, gender Male, age 6 weeks
# experimental.parameters: in vivo, po, 100 mg/kg, 3 h, route gavage, dose level Low
# strict inequality: TERMINAL_BW < 200 g yields Yes, everything else yields No

Please review the following examples before continuing.
* Cc1nnc2n1-c1ccc(Cl)cc1C(c1ccccc1Cl)=NC2 | Yes
* O=C(OC[C@H]1O[C@@H](OC(=O)c2cc(O)c(O)c(OC(=O)c3cc(O)c(O)c(O)c3)c2)[C@H](OC(=O)c2cc(O)c(O)c(OC(=O)c3cc(O)c(O)c(O)c3)c2)[C@@H](OC(=O)c2cc(O)c(O)c(OC(=O)c3cc(O)c(O)c(O)c3)c2)[C@@H]1OC(=O)c1cc(O)c(O)c(OC(=O)c2cc(O)c(O)c(O)c2)c1)c1cc(O)c(O)c(OC(=O)c2cc(O)c(O)c(O)c2)c1 | Yes
* CNC(=C[N+](=O)[O-])NCCSCc1ccc(CN(C)C)o1 | No

Field: next compound
Please determine if CN/C(=N/CCSCc1nc[nH]c1C)NC#N is below 200 g in terms of TERMINAL_BW.
No

* * *

# Species: Rattus norvegicus
# assay.explanation: Open TG-GATES - Regimen: Daily Repeat
# Assay type: toxicity, organism-based, Sprague-Dawley
# Design: regimen Daily Repeat, gender Male, age 6 weeks
# experimental.parameters: in vivo, po, 300 mg/kg, […], tissue Plasma, route gavage, dose level Middle, time 14 day
parameter.measured: TBIL (mg/dL)
Just the number in mg/dL, nothing appended.

Here are 5 compounds together with their reported answers.
• CN/C(=N/CCSCc1nc[nH]c1C)NC#N = 0.2
• CNC(=C[N+](=O)[O-])NCCSCc1ccc(CN(C)C)o1 = 0.2
• Cc1nnc2n1-c1ccc(Cl)cc1C(c1ccccc1Cl)=NC2 = 0.036
• CCOc1ccc(NC(C)=O)cc1 = 0.086
• COC(=O)C1=C(C)NC(C)=C(C(=O)OC)C1c1ccccc1[N+](=O)[O-] = 0.018

// next entry
Supply TBIL value. Item: O=C(OC[C@H]1O[C@@H](OC(=O)c2cc(O)c(O)c(OC(=O)c3cc(O)c(O)c(O)c3)c2)[C@H](OC(=O)c2cc(O)c(O)c(OC(=O)c3cc(O)c(O)c(O)c3)c2)[C@@H](OC(=O)c2cc(O)c(O)c(OC(=O)c3cc(O)c(O)c(O)c3)c2)[C@@H]1OC(=O)c1cc(O)c(O)c(OC(=O)c2cc(O)c(O)c(O)c2)c1)c1cc(O)c(O)c(OC(=O)c2cc(O)c(O)c(O)c2)c1
0.3

* * *

# Species: Rattus norvegicus
# assay.explanation: Open TG-GATES - Regimen: Single
# Assay type: toxicity, organism-based, Sprague-Dawley
# Design: regimen Single, gender Male, age 6 weeks
# experimental.parameters: in vivo, po, 1000 mg/kg, 24 h, tissue Plasma, route gavage, dose level High
parameter.measured: ALT (IU/L)
Numeric answer only, unit IU/L assumed.

Example results:
• CN/C(=N/CCSCc1nc[nH]c1C)NC#N = 34.2
• COC(=O)C1=C(C)NC(C)=C(C(=O)OC)C1c1ccccc1[N+](=O)[O-] = 40.6
• CNC(=C[N+](=O)[O-])NCCSCc1ccc(CN(C)C)o1 = 33.2
• Cc1nnc2n1-c1ccc(Cl)cc1C(c1ccccc1Cl)=NC2 = 44.8

// below: ALT requested for another compound
Please give measured ALT of the following entry: O=C(OC[C@H]1O[C@@H](OC(=O)c2cc(O)c(O)c(OC(=O)c3cc(O)c(O)c(O)c3)c2)[C@H](OC(=O)c2cc(O)c(O)c(OC(=O)c3cc(O)c(O)c(O)c3)c2)[C@@H](OC(=O)c2cc(O)c(O)c(OC(=O)c3cc(O)c(O)c(O)c3)c2)[C@@H]1OC(=O)c1cc(O)c(O)c(OC(=O)c2cc(O)c(O)c(O)c2)c1)c1cc(O)c(O)c(OC(=O)c2cc(O)c(O)c(O)c2)c1
36.4

Just for reference, ChEMBL document CHEMBL3885861 is where these values come from.
